Below are molecules with their IC50 as measured on HPK1 (Homo sapiens (Human)).
Sequence (Q92918 1-346 limits assumed): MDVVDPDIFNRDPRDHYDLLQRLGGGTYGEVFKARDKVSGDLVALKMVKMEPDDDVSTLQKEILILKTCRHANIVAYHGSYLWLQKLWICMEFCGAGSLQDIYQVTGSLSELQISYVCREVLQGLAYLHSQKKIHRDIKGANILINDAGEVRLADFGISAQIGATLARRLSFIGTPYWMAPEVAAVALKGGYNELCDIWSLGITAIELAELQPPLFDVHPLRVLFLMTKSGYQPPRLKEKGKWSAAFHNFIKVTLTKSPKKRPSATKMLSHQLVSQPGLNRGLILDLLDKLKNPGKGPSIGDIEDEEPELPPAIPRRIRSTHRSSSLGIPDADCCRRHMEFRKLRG
Lab book: enter the figure in nM, no units written.

molecule | unitOfMeasure | IC50
O=C1CCC(N2Cc3ccc(N4CCC(CN5CCCN(c6cccc(-c7cnc8[nH]cc(CC(F)F)c8c7Cl)c6)C5=O)CC4)cc3C2=O)C(=O)N1 (stereo not shown) [Example 13] | nM | 12.5
CCc1c[nH]c2ncc(-c3cccc(N4CCCN(CCN5CCN(c6cc7c(cc6F)C(=O)N(C6CCC(=O)NC6=O)C7)CC5)C4=O)c3)c(Cl)c12 (stereo not shown) [Example 7] | nM | 10.5
CCc1c[nH]c2ncc(-c3cccc(N4CCCN(CC5CCN(c6ccc7c(c6)C(=O)N(C6CCC(=O)NC6=O)C7=O)CC5)C4=O)c3)c(Cl)c12 (stereo not shown) [Example 8] | nM | 15.7

As a next step, examine the molecule that follows.
Form field - read-out: IC50; system: HPK1 (Homo sapiens (Human)); submitted item: CCc1c[nH]c2ncc(-c3cccc(N4CCCN(CCN5CCN(c6ccc7c(N8CCC(=O)NC8=O)cccc7c6)CC5)C4=O)c3)c(Cl)c12 [Example 4]
17.1

meta.source: patent US20250368640A1
